# Test system: CAKI-1 renal
# assay-summary: NCI-60 one-dose screen, 48 h (100 = growth as untreated, 0 = no growth, -100 = all killed)
# measurement-parameters: 10 µM unless noted
About 83,000 compounds went through this panel and 20% of them were active in at least one assay; those are over-represented in the sample as a whole.
Could you please mark Fulfilled for values of growth below 80% and Not fulfilled for values at or above it?

Before answering, review these 5 worked examples.
>>> qualitative_label("COC(=O)c1c[n+]([O-])ccc1OC")
"Not fulfilled"
>>> qualitative_label("Nc1nc2cc(O)ccc2n2cc3c(F)cccc3c12")
"Fulfilled"
>>> qualitative_label("COc1ccc(-n2nnnc2-c2cn[nH]c2C(F)(F)F)cc1")
"Not fulfilled"
>>> qualitative_label("O=C(Nc1ccc(Cl)cn1)C1(c2ccccc2)CCCCC1")
"Not fulfilled"
>>> qualitative_label("CCn1cc(C(=O)O)c(=O)c2cc(F)c(N3CCN(S(=O)(=O)c4ccc(Cl)cc4)CC3)cc21")
"Fulfilled"

# strict comparison: is reported growth < 80%? input = CCCCCCCCC/C(=N\NC(=O)c1ccncc1)c1ccc(O)c(O)c1O
Fulfilled

# strict comparison: is reported growth < 80%? input = COC1NC(Cl)=C(C#N)C(C#N)(C#N)C1(C)C (stereo not given)
Not fulfilled

# strict comparison: is reported growth < 80%? input = COC(=O)C(C)[C@H]1CC[C@@H]2[C@]1(C)CC=C1[C@]23C=C[C@]2(C[C@@H](OC(C)=O)CC[C@]12C)C(C(=O)OC)C3C(=O)OC (stereo not given in full)
Not fulfilled

# strict comparison: is reported growth < 80%? input = CCOC1=C(Cl)C(=O)C(OCC)=C(Cl)C1=O
Not fulfilled
